Data credit: PubChem BioAssay AID1159580

Assay: chemical genetic growth profiling, strain panel (AID 1159580);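 further: tested at 20 µM; growth read once vehicle control cultures reached saturation at 30 °C; 1 = growth at the plate median or of vehicle wells; lower values mean less growth of the strain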
Conditions: S. cerevisiae deletion strains, growth OD, locus YDR297W, strain sur2, hits give low values
The campaign covered roughly 5,500 compounds. About 2,000 (36%) were called active. Inconclusive results (about 18%) are left out. Some of the results follow.
Provide the recorded normalized growth for the entries that follow.
Just the number, please, no unit after it.

Incoming: Return reported normalized growth; argument: `O=C(O)CCC(=O)Nc1ccc(S(=O)(=O)Nc2nccs2)cc1`
Outgoing: 1.01

Incoming: Return reported normalized growth; argument: `C/C=C/C(=O)N(CC)c1ccccc1C`
Outgoing: 1

Incoming: Return reported normalized growth; argument: CC(CN(C)C)CN1c2ccccc2CCc2ccccc21 (centres undefined)
Outgoing: 0.975

Incoming: Return reported normalized growth; argument: `c1ccc2nc(N3CCNCC3)ccc2c1`
Outgoing: 1

Incoming: Return reported normalized growth; argument: `CN1CCN(C2=Nc3ccccc3Oc3ccc(Cl)cc32)CC1`
Outgoing: 0.99

Incoming: Return reported normalized growth; argument: `COc1ccc(C(=O)CC(=O)c2ccc(C(C)(C)C)cc2)cc1`
Outgoing: 1

Incoming: Return reported normalized growth; argument: `CCN(CCCc1ccccc1)CCCc1ccccc1`
Outgoing: 0.99

Incoming: Return reported normalized growth; argument: COc1cc(S(C)=O)ccc1-c1nc2ncccc2[nH]1 (centres undefined)
Outgoing: 0.974

Incoming: Return reported normalized growth; argument: `CCC(=O)Nc1ccc(Cl)c(Cl)c1`
Outgoing: 0.988

Incoming: Return reported normalized growth; argument: C[C@@H]1CC2C3C[C@H](F)C4=CC(=O)C=C[C@]4(C)[C@@]3(F)[C@@H](O)C[C@]2(C)[C@@]1(O)C(=O)COC(=O)C(C)(C)C (some centres undefined)
Outgoing: 0.993

Incoming: Return reported normalized growth; argument: CCCCCC1C(=O)CCC1CC(=O)OC (centres undefined)
Outgoing: 0.978

Incoming: Return reported normalized growth; argument: `NNCCc1ccccc1`
Outgoing: 1

Incoming: Return reported normalized growth; argument: CCN(CC)C(C)CN1c2ccccc2Sc2ccccc21 (centres undefined)
Outgoing: 0.939

Incoming: Return reported normalized growth; argument: `O=C(O)c1ccccc1C(=O)Nc1ccc(S(=O)(=O)Nc2nccs2)cc1`
Outgoing: 0.988

Incoming: Return reported normalized growth; argument: `COc1ccc(C(=O)N2CCCC2=O)cc1`
Outgoing: 0.967

Incoming: Return reported normalized growth; argument: `Clc1ccc2c(c1)C(N1CCNCC1)=Nc1ccccc1O2`
Outgoing: 0.992

Incoming: Return reported normalized growth; argument: `CN(C(=O)CN(CCO)CC(=O)N(C)C(C)(C)Cc1ccccc1)C(C)(C)Cc1ccccc1`
Outgoing: 1

Incoming: Return reported normalized growth; argument: CC(CN(C)C)CN1c2ccccc2Sc2ccccc21 (centres undefined)
Outgoing: 1.01

Incoming: Return reported normalized growth; argument: `CNCCCN1c2ccccc2CCc2ccccc21`
Outgoing: 1.03

====

Test: chemical genetic growth profiling, strain panel (AID 1159580);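 further: tested at 20 µM; growth read once vehicle control cultures reached saturation at 30 °C; 1 = growth at the plate median or of vehicle wells; lower values mean less growth of the strain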
Conditions: S. cerevisiae deletion strains, growth OD, locus YML124C, strain tub3, hits give low values
In all, about 5,500 compounds went through this assay and about 2,000 (36%) were called active. Roughly 18% stayed inconclusive and do not appear here. This is one part of the list.
Provide the recorded normalized growth for the entries that follow.
Just the number, please, no unit after it.

Incoming: Return reported normalized growth; argument: CC(CN(C)C)CN1c2ccccc2CCc2ccccc21 (stereo unspecified)
Outgoing: 1.02

Incoming: Return reported normalized growth; argument: `COc1cc(C)c(C(=O)Oc2cc(C)c(C(=O)O)c(O)c2C)c(OC)c1C`
Outgoing: 1.01

Incoming: Return reported normalized growth; argument: `CCOC(=O)[C@H](CCc1ccccc1)N[C@@H](C)C(=O)N1Cc2ccccc2C[C@H]1C(=O)O`
Outgoing: 1.01

Incoming: Return reported normalized growth; argument: `CNCCCN1c2ccccc2CCc2ccccc21`
Outgoing: 1

Incoming: Return reported normalized growth; argument: CC(CN(C)C)CN1c2ccccc2Sc2ccccc21 (stereo unspecified)
Outgoing: 0.995

Incoming: Return reported normalized growth; argument: `COc1cc(OC)c2c3c1C(=O)c1c(OC)cc(C)c4c(OC)cc(c-3c14)C(C)(C)C2=O`
Outgoing: 0.985
